Reference source for all entries: patent US12042520B2

test: Curcumin plasma concentration after intravenous administration in the pig (for comparison); format: in vivo; details: plasma, 0.6 grams for 23 kg of live weight, 0.60 grams for 23 kg, 24 hours
property name: concentration at 24 hours (ng/mL)
Numbers only, in ng/mL.

Any idea what concentration at 24 hours was measured for `COc1cc(/C=C/C(=O)CC(=O)/C=C/c2ccc(O)c(OC)c2)ccc1O` ?
724

###

assay: Curcumin plasma concentration after intravenous administration in the pig (for comparison); type: in vivo; conditions: plasma, 0.6 grams for 23 kg of live weight, 0.60 grams for 23 kg, 6 hours
property name: concentration at 6 hours (ng/mL)
Answers are plain numbers, in ng/mL.

Fill in: concentration at 6 hours of COc1cc(/C=C/C(=O)CC(=O)/C=C/c2ccc(O)c(OC)c2)ccc1O [Curcumin, curcumin] is ___
557

###

experiment: Curcumin plasma concentration after intravenous administration in the pig (for comparison); assay type: in vivo; conditions: plasma, 0.6 grams for 23 kg of live weight, 0.60 grams for 23 kg, 72 hours
property name: concentration at 72 hours (ng/mL)
One number for each entry, in ng/mL.

Using the record for `COc1cc(/C=C/C(=O)CC(=O)/C=C/c2ccc(O)c(OC)c2)ccc1O` , report its concentration at 72 hours.
385
